- targetUnderTest: human vasopressin V1a receptor (Homo sapiens)
- Sequence (P37288 whole entry): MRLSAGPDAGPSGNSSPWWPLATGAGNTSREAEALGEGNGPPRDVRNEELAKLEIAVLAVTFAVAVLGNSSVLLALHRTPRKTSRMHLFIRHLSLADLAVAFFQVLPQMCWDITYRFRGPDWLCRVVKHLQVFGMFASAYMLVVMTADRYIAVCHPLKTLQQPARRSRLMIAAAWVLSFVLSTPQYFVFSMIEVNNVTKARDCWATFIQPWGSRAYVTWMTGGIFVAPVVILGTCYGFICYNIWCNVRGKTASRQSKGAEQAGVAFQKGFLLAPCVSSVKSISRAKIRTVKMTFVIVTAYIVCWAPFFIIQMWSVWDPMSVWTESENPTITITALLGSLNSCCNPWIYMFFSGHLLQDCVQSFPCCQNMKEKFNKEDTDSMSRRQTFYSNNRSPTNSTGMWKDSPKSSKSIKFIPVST
- assayExplanation: Receptor binding study, [3H]AVP displacement on CHO cell membranes, human V1a
- details: [3H]AVP displacement, CHO cell membrane, 25° C., one hour; read-out: Human V1a Ki
The entries below are paired with their reported Ki.

| molecule | Ki [nM] |
| --- | --- |
| C[C@H]1CCN(C(=O)c2ccc(-c3ccc4[nH]ccc4c3)c(OCCN3CCOCC3)c2)c2ccccc2N1 [Example 59] | 0.23 |
| C[C@H]1CCN(C(=O)c2ccc(-c3ccc4[nH]ccc4c3)c(CN3CCOCC3)c2)c2ccccc2N1 [Example 94] | 0.21 |
| C[C@H]1CCN(C(=O)c2ccc(-c3ccc4[nH]ccc4c3)c(OCCCN3CCOC3=O)c2)c2ccccc2N1 [Example 92] | 0.21 |
| C[C@H]1CCN(C(=O)c2ccc(-c3ccc4[nH]ccc4c3)c(C(=O)CCCCN(C)C)c2)c2ccccc2N1 [Example 158] | 0.11 |
| C[C@H]1CCN(C(=O)c2ccc(-c3ccc4[nH]ccc4c3)c(OCCCCCN3CCOCC3)c2)c2ccccc2N1 [Example 69] | 0.24 |
| CCCN1CCC(OC(=O)c2cc(C(=O)N3CC[C@H](C)Nc4ccccc43)ccc2-c2ccc3[nH]ccc3c2)CC1 [Example 138] | 0.23 |
| CCCN(C)CCCCCOc1cc(C(=O)N2CC[C@H](C)Nc3ccccc32)ccc1-c1ccc2[nH]ccc2c1 [Example 126] | 0.24 |
| CCCN(CCC)CCCOc1cc(C(=O)N2CC[C@H](C)Nc3ccccc32)ccc1-c1ccc2[nH]ccc2c1 [Example 79] | 0.13 |
| C[C@H]1CCN(C(=O)c2ccc(-c3ccc4[nH]ccc4c3)c(OCCCCN3CCOCC3)c2)c2ccccc2N1 [Example 67] | 0.19 |
| C[C@H]1CCN(C(=O)c2ccc(-c3ccc4[nH]ccc4c3)c(OCCCN3CCCCC3)c2)c2ccccc2N1 [Example 71] | 0.16 |
| C[C@H]1CCN(C(=O)c2ccc(-c3ccc(N)cc3)c(OCCN3CCOCC3)c2)c2ccccc2N1 [Example 60] | 0.27 |
| CCCN(C)CCCOc1cc(C(=O)N2CC[C@@H](C)Nc3ccccc32)ccc1-c1ccc(NC)cc1 [Example 130] | 0.36 |
| C[C@H]1CCN(C(=O)c2ccc(-c3ccc4[nH]ccc4c3)c(OCCCN3CCC[C@H]3C(N)=O)c2)c2ccccc2N1 [Example 88] | 0.3 |
| CCCCCN(C)CCCCOc1cc(C(=O)N2CC[C@H](C)Nc3ccccc32)ccc1-c1ccc2[nH]ccc2c1 [Example 174] | 0.35 |
| COCCN(CCCOc1cc(C(=O)N2CC[C@H](C)Nc3ccccc32)ccc1-c1ccc2[nH]ccc2c1)CCOC [Example 84] | 0.1 |
| COc1cc(C(=O)N2CC[C@H](C)Nc3ccccc32)ccc1-c1ccc2[nH]ccc2c1 [Example 47] | 0.39 |
| CCCN(CC)CCCOc1cc(C(=O)N2CC[C@H](C)Nc3ccccc32)ccc1-c1ccc2[nH]ccc2c1 [Example 125] | 0.18 |
| CC(C)N(C)CCCOc1cc(C(=O)N2CC[C@H](C)Nc3ccccc32)ccc1-c1ccc2[nH]ccc2c1 [Example 85] | 0.052 |
| CC1CCN(C(=O)c2ccc(-c3ccc4[nH]ccc4c3)c(OCCCN)c2)c2ccccc2N1 (stereo not shown) [Example 30] | 0.091 |
